tested on: Fibrinogen (Alexa647-labelled); assay: Alexa647-fibrinogen binding to printed small molecules – biochemical, small-molecule microarray, 635/667 nm fluorescence, artefact control for SMM control-protein annotation, profiling panel (AID 1131); settings: fibrinogen-A647 binding fluorescence, higher = more signal;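 note: z-score merges 667 nm fluorescence with per-spot signal-to-noise over triplicate slides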
// reported composite z-score for each item listed
Lab note: jot the number down without any unit.

COMPOUND | TARGET OF ASSAY | composite z-score
COC(=O)[C@@]1(Cc2ccc(OC)cc2)[C@H]2c3cc(C(=O)N(C)C)n(Cc4ccc(OC(F)(F)F)cc4)c3C[C@H]2CN1C(=O)c1ccccc1 | Fibrinogen (Alexa647-labelled) | 0.808
Cc1cc(C)c(C(O)C2C=CC3C(=O)N(c4ccccc4)C(=O)C3N2Nc2ccccc2F)c(C)c1 (configuration not stated) | Fibrinogen (Alexa647-labelled) | 0.859
C=CC[C@@]1(C(=O)NCCCOC)N=C(c2ccc(OCCCO)cc2)O[C@@H]1c1ccccc1N=[N+]=[N-] | Fibrinogen (Alexa647-labelled) | 1.03
COCCOC(=O)N1C(=O)[C@@]2(c3cc(C#CC4=CCCCC4)ccc31)[C@H](C(=O)Nc1nc3ccccc3s1)[C@H]1C(=O)O[C@H](c3ccccc3)[C@H](c3ccccc3)N1[C@@H]2c1ccc(O)cc1 | Fibrinogen (Alexa647-labelled) | 0.362
CCCCC(CC)C(O)C1C=CC2C(=O)N(C)C(=O)C2N1Nc1ccccc1 (configuration not stated) | Fibrinogen (Alexa647-labelled) | 0.852
[N-]=[N+]=Nc1ccccc1C[C@@]1(C(=O)NCCN2CCOCC2)N=C(c2ccc(OCCCO)cc2)O[C@@H]1c1ccccc1N=[N+]=[N-] | Fibrinogen (Alexa647-labelled) | 0.989

Moving on to the next compound.
Problem: Recorded composite z-score for COC(=O)C1=CC(CCCO)=CC(c2cccs2)N(Cc2cccc(OC(F)(F)F)c2)C=C1C(=O)OC (configuration not stated) , please?
Solution: 0.972

###

target: Alpha-bungarotoxin (Bungarus multicinctus); test: compounds binding labelled alpha-BTX control protein – biochemical, small-molecule microarray, Alexa647 label, 635/667 nm fluorescence, artefact control for SMM control protein annotation, profiling panel (AID 1117); details: alpha-BTX-A647 binding fluorescence, higher = more signal
Collected composite z-score values appear next to each entry.
# respond with the number and nothing more

SMILES ENTRY | composite z-score
COc1ccc(C#Cc2ccc3c(c2)[C@]2(C(=O)N3)[C@H](c3ccc(O)cc3)N3[C@H](c4ccccc4)[C@H](c4ccccc4)OC(=O)[C@H]3[C@@H]2C(=O)Nc2nc3ccccc3s2)cc1 | 1.25
COC(=O)[C@@]1(Cc2ccc(OC)cc2)[C@H]2c3cc(C(=O)N4CCCC4)n(CCc4c[nH]c5ccc(O)cc45)c3C[C@H]2CN1C(=O)c1ccccc1 | 0.485
COCC(=C=CC[C@H](O)c1ccccc1OCCO)C[C@H](O)c1ccccn1 | -0.0928

Problem: Return reported composite z-score; argument: `O[C@@H](Cc1ccccc1)[C@@H](/C=C/C1CC1)N(CC#Cc1ccccc1)Cc1ccccc1Br`
Solution: -0.288

Problem: `C=CC[C@]1(C(=O)N2CCCCC2)N=C(c2ccc(OCCCO)cc2)O[C@H]1c1ccccc1CN=[N+]=[N-]` ?
Solution: 0.875

Problem: # repeat for `C=CCNC(=O)[C@@H]1[C@H]2C(=O)O[C@H](c3ccccc3)[C@H](c3ccccc3)N2[C@H](c2ccccc2OCCO)[C@@]12C(=O)N(C(=O)OCCOC)c1ccc(C#CC3(O)CCCCCC3)cc12`
Solution: 0.859

Problem: Check `CCCNC(=O)[C@@]1(Sc2ccc(C)cc2)CC(=O)N(C2Cc3ccccc3C2)[C@@H]1c1ccc(CO)cc1I` too.
Solution: 0.161

###

assay: probe aEGFR binding to arrayed compounds – biochemical, biotinylated probe, 635/667 nm fluorescence, primary screen (AID 1097); settings: small-molecule microarray, higher = more signal;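 note: probe is a biotinylated anti-EGFR antibody binding compounds printed on slides; score combines fluorescence near 667 nm and signal to noise of each spot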
The class of a record is decided solely by its measured composite z-score; consult L: < -0.1; M: ≥ -0.1 and < 0.02; H: ≥ 0.02

MOLECULE | LABEL CLASS
CCCC#C[Si](O[C@H](CC)c1cn([C@H](C)c2ccccc2)nn1)(C(C)C)C(C)C | H
CC(C)N1C(=O)c2ccccc2[C@@H](C(=O)NCCN2CCOCC2)[C@@H]1c1ccc(CO)cc1 | L
COc1cc2c(cc1O)C(C1CC1)N(C)CC2 (stereo unspecified) | L
C#CCN([C@@H](Cc1ccccc1)C(=O)OC)[C@@H](/C=C/C1CC1)[C@H](O)Cc1ccccc1 | L
CCCCC(O)C1C=CC2C(=O)N(C)C(=O)C2N1N(c1ccccc1)c1ccccc1 (stereo unspecified) | H
CCOc1cc(C(O)C2C=CC3C(=O)NC(=O)C3N2Nc2ccc(Cl)cc2Cl)ccc1O (stereo unspecified) | L
COc1ccc(C#Cc2ccc3c(c2)[C@]2(C(=O)N3)[C@H](c3ccc(O)cc3)N3[C@H](c4ccccc4)[C@H](c4ccccc4)OC(=O)[C@H]3[C@@H]2C(=O)Nc2nc3ccccc3s2)cc1 | H
CCCCCN1CC=CC23O[C@@H]4C=CCCOC(=O)C4[C@H]2C(=O)N(CCCCCCO)[C@@H]3C1=O (stereo partly specified) | L
C=C[C@H]1C(C(=O)OCC)=CC[C@@H](c2ccccc2)N1S(=O)(=O)c1ccc(C)cc1 | M
O=c1cccc(-c2ccc([N+](=O)[O-])cc2)o1 | M

Problem: Place this molecule in its band: `O=C(O)[C@@H]1C[C@@H]2C(=O)N3CCC[C@H]3C(=O)N2[C@@H]1c1ccc(O)cc1`
Solution: H

Problem: Now try COc1cc2c(cc1O)C(c1cccs1)N(Cc1cc3c(cc1Br)OCO3)CC2 (stereo unspecified) .
Solution: H

###

target: Fibroblast growth factor 10 (Homo sapiens); test: compounds binding fibroblast growth factor 10 – biochemical, small-molecule microarray, 635 nm fluorescence, primary screen (AID 1102); details: FGF10 binding, fluorescence 635 nm, higher = more signal
MEASURED ATTRIBUTE: composite z-score
Form rule: numeric answer, no unit written next to it.

Problem: Which composite z-score is listed for `C[N+](C)(C)CCCCCCNC(=O)[C@@H]1C[C@@H]2C(=O)N3CCC[C@H]3C(=O)N2[C@@H]1c1ccc(O)cc1` ?
Solution: 1.37

Problem: Also check `CN(C)C(=O)[C@]1(Cc2ccccc2CN=[N+]=[N-])N=C(c2ccc(OCCCO)cc2)O[C@@H]1c1ccccc1`
Solution: 0.647

Problem: `CC(=O)NCCCC[C@@H]1NC(=O)[C@@H]2C[C@H](C(=O)NCCCCCN)[C@H](c3ccc(O)cc3)N2C1=O` , same question.
Solution: 1.23

Problem: Also, CC(C)C(CO)N1C(=O)[C@@H]2C3C(=O)OCCC/C=C\[C@H]3OC23C=CCN(Cn2nnc4ccccc42)C(=O)[C@@H]13 (stereo partly specified) please.
Solution: -0.727

Problem: Try `CCCNC(=O)[C@@H]1c2ccccc2C(=O)N(Cc2ccc(OC(F)(F)F)cc2)[C@H]1c1ccc(CO)cc1` next.
Solution: 0.402

Problem: Thanks! And `CC(C)[Si]1(C(C)C)OCc2cc(-c3ccc(-c4ccc(Cl)c(Cl)c4)o3)nc(-c3ccccc3)c21` ?
Solution: -1.08

Problem: Next up: `C=CC[C@H](OC(=O)Nc1ccc(SC)cc1)c1ccc(O)c2ccccc12`
Solution: 0.972

Problem: Now the same for `[N-]=[N+]=Nc1ccccc1C[C@@]1(C(=O)N2CCOCC2)N=C(c2ccc(OCCCO)cc2)O[C@@H]1c1ccccc1`
Solution: 1.36

Problem: And the next one, `COc1ccc([Si](C)(C)[C@@H]2[C@@H](CCO)O[C@]3(C(=O)N(Cc4ccccc4)c4ccc(N5C(=O)c6cccc7cccc5c67)cc43)[C@H]2C)cc1` ?
Solution: -0.231

Problem: Then what about the molecule COc1cc2c(cc1O)C(C1CC1)N(Cc1cccc(OC(F)(F)F)c1)CC2 (stereo unspecified) ?
Solution: -0.293

Problem: Quick one: `[N-]=[N+]=NCc1ccccc1C[C@@]1(C(N)=O)N=C(c2ccc(OCCCO)cc2)O[C@@H]1c1ccccc1`
Solution: 0.001

Problem: `CC(C)[Si](C#CCCCC#N)(O[C@H](c1ccccc1)c1cn(Cc2ccccc2)nn1)C(C)C` ?
Solution: 1.01

Problem: Okay, and O=C1C2C=CC(C(O)c3ccco3)N(Nc3ccccc3F)C2C(=O)N1c1ccccc1 (stereo unspecified) ?
Solution: 0.285

Problem: What do you have for `[N-]=[N+]=Nc1ccccc1C[C@]1(C(=O)NCCN2CCOCC2)COC(c2ccc(OCCCO)cc2)=N1` ?
Solution: 0.318

Problem: Queued: CC(C)c1ccc(NN2C(C(O)c3ccc(F)cc3)C=CC3C(=O)N(c4ccccc4)C(=O)C32)cc1 (stereo unspecified)
Solution: 1.07

Problem: And what about the molecule `CC(=O)NCCCC[C@@H]1NC(=O)[C@@H]2C[C@H](C(=O)NCCCCCN)[C@H](c3cccc(OCCO)c3)N2C1=O` ?
Solution: 1.24
